tested on: UO-31; experiment: NCI tumour cell line growth inhibition, 48 h
Active and inactive are the calls of the source. No stated cut-off is given here; in the data, active = GI50 up to about 1.1 µM and inactive = higher.
Hi! Could you answer with just one of these? active, inactive

What classification did NC(=O)C(c1ccccc1)N1CCOCC1 (centres undefined) end up with in this test?
inactive

Then what about the compound "Cc1c(C(=O)Nc2ccccc2)nnn1-c1ccnc2cc(C(F)(F)F)ccc12" ?
inactive

***
What classification did "C/C(=C\COP(=O)(O)OP(=O)(O)O)CC/C=C(\C)CNc1c(F)c(F)c(F)c(F)c1F" end up with in this test?
inactive

Then what about the compound "N#Cc1c(N2CCCC2)nsc1Nc1ccccc1" ?
inactive

Then what about the compound C=C1C2CC(OC(C)=O)C3(C)C(c4ccoc4)OC(=O)[C@@H](O)[C@]13OC1C[C@H](OC(C)=O)C(C)(C)[C@H](CC(=O)OC)[C@]12C (some centres undefined) ?
inactive

Then what about the compound CC(C)NCCCC(C)Nc1ccnc2ccc3nn(C)nc3c12 (centres undefined) ?
inactive

Then what about the compound "O=C(Cn1c(=O)oc2ccc(C(=O)c3ccc(F)cc3)cc21)c1ccccc1" ?
inactive
